# procedureText: Solubility in 10% DMSO(expressed as mean of 3 determinations)
# Type: physicochemical
# experimentalConditions: read-out: S
solubility values for the molecules below.
Write down the value, and be sure its unit follows.

molecule	solubility
COc1ccc(OC)c(C(=O)O[C@H]2C3[C@](C)(C(=O)[C@H](OC(=O)N4CCN(CCSSC)CC4)C4=C(C)[C@@H](OC(=O)[C@H](O)[C@H](C=C(C)C)NC(=O)OC(C)(C)C)C[C@]2(O)C4(C)C)C(O)C[C@H]2OC[C@@]32OC(C)=O)c1 (stereo not given in full)	0.026 mg/mL
COc1ccc(OC)c(C(=O)O[C@H]2C3[C@](C)(C(=O)[C@H](O)C4=C(C)[C@@H](OC(=O)[C@H](O)[C@H](C=C(C)C)NC(=O)OC(C)(C)C)C[C@]2(O)C4(C)C)C(OC(=O)CCSSC)C[C@H]2OC[C@@]32OC(C)=O)c1 (stereo not given in full)	0.004 mg/mL
COc1ccc(OC)c(C(=O)O[C@H]2C3[C@](C)(C(=O)[C@H](OC(=O)CCOCCOCCOCCOCCOCCOCCOCCOCCOCCOCCSSC)C4=C(C)[C@@H](OC(=O)[C@H](O)[C@H](C=C(C)C)NC(=O)OC(C)(C)C)C[C@]2(O)C4(C)C)C(O)C[C@H]2OC[C@@]32OC(C)=O)c1 (stereo not given in full)	0.11 mg/mL

Annotate the molecule COc1ccc(OC)c(C(=O)O[C@H]2C3[C@](C)(C(=O)[C@H](OC(=O)CCOCCOCCOCCOCCSSC)C4=C(C)[C@@H](OC(=O)[C@H](O)[C@H](C=C(C)C)NC(=O)OC(C)(C)C)C[C@]2(O)C4(C)C)C(O)C[C@H]2OC[C@@]32OC(C)=O)c1 (stereo not given in full) with its measured solubility.
0.082 mg/mL

Annotate the molecule COc1ccc(OC)c(C(=O)O[C@H]2C3[C@](C)(C(=O)[C@H](OC(=O)CCSSC)C4=C(C)[C@@H](OC(=O)[C@H](O)[C@H](C=C(C)C)NC(=O)OC(C)(C)C)C[C@]2(O)C4(C)C)C(O)C[C@H]2OC[C@@]32OC(C)=O)c1 (stereo not given in full) with its measured solubility.
0.014 mg/mL
